- tgt: human TLR9 (Homo sapiens, UniProt Q9NR96)
- Sequence (Q9NR96 26-1032): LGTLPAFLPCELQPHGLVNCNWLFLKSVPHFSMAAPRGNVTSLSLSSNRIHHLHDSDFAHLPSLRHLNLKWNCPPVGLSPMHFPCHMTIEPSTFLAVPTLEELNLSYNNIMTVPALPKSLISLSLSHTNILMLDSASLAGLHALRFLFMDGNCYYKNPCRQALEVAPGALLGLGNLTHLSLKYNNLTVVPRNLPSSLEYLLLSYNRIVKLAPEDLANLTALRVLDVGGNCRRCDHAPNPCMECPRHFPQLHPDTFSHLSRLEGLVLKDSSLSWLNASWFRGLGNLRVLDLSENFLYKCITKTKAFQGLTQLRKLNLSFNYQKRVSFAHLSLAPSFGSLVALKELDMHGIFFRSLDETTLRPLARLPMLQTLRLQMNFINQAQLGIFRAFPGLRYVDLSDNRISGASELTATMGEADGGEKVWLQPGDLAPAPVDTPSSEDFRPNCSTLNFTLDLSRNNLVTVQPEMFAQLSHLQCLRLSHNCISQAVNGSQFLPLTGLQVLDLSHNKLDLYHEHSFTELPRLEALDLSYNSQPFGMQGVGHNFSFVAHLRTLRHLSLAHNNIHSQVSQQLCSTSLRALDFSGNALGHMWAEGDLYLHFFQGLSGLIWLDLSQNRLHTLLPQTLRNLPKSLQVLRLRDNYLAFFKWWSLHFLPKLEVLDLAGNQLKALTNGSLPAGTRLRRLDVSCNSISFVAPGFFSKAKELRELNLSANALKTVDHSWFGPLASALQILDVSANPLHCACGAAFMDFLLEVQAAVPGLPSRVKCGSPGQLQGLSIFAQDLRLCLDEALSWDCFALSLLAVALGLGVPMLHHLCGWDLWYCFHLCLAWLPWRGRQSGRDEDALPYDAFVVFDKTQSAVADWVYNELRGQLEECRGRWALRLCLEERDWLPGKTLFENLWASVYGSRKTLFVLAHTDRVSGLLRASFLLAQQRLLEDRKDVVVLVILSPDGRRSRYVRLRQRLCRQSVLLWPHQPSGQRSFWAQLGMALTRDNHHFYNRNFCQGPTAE
- assay method text: HEK293-Blue-hTLR-9 cells assay (SEAP reporter, ODN2006 stimulation)
- Type: cell-based
- assay setup: HEK293-Blue-hTLR-9 cells, ODN2006 ligand, 20 hrs incubation; read-out: TLR9 IC50
measured property: IC50 (µM)
Answer in µM, number only, no unit symbol.

Entry C[C@@H]1CN(c2ccc(C#N)n3nccc23)C[C@H](C(=O)NC2C3CNCC2COC3)O1 (some centres unmarked) [Example 27] , IC50 reported as 6.8

Entry C[C@@H]1CN(c2ccc(C#N)n3nccc23)C[C@H](C(=O)NC2CNC[C@H]2F)O1 (some centres unmarked) [Example 5] , IC50 reported as 77

Entry C[C@@H]1CN(c2ccc(C#N)n3nccc23)C[C@H](C(=O)N2CCC3(CCNCC3)CC2)O1 [Example 28] , IC50 reported as 1.7

Entry C[C@@H]1CN(c2ccc(C#N)n3nccc23)C[C@H](C(=O)NC2CCNCC2)O1 [Example 24] , IC50 reported as 13

Entry C[C@@H]1CN(c2ccc(C#N)n3nccc23)C[C@H](C(=O)N[C@H]2CC[C@@H](O)CC2)O1 [Example 20] , IC50 reported as 71

Entry C[C@H]1C[C@@H](N)CN(c2ccc(C#N)n3nccc23)C1 [Example 43] , IC50 reported as 10

====

Exercise: for every item that follows, state its recorded IC50.
- tgt: human TLR7 (Homo sapiens, UniProt Q9NYK1)
- Sequence (Q9NYK1 27-1049): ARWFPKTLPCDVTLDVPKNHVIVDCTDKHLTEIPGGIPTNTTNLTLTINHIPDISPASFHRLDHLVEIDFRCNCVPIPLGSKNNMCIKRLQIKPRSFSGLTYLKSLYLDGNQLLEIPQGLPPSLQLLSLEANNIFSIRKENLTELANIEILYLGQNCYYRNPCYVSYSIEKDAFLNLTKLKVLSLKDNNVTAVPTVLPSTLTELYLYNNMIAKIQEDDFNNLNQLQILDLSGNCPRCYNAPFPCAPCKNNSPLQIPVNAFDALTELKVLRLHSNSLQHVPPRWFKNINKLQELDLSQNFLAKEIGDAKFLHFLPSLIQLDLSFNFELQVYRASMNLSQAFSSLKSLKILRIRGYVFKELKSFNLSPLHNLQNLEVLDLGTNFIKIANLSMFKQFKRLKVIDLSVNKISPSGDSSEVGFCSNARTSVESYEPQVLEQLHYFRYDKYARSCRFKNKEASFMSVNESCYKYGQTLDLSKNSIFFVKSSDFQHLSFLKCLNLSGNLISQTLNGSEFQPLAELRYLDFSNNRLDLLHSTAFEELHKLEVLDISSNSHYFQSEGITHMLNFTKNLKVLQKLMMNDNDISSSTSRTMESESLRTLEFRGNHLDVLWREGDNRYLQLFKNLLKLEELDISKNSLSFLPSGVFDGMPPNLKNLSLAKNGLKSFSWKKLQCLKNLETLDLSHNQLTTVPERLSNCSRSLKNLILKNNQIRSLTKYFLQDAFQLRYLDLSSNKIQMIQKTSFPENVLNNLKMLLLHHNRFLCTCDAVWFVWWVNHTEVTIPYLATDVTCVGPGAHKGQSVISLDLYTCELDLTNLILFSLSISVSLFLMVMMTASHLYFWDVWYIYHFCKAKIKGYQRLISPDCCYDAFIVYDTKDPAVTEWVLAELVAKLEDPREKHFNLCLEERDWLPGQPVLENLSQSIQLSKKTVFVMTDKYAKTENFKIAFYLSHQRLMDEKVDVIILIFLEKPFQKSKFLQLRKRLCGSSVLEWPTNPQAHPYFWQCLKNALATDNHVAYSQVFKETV
- assay method text: HEK293-Blue-hTLR-7 cells assay (SEAP reporter, R848 stimulation)
- Format: cell-based
- assay setup: HEK293-Blue-hTLR-7 cells, R848 ligand, 20 hrs incubation; read-out: TLR7 IC50
- Protocol: The following tests were carried out in order to determine the activity of the compounds of formula (I) in HEK293-Blue-hTLR-7/8/9 cells assay. HEK293-Blue-hTLR-7 Cells Assay: A stable HEK293-Blue-hTLR-7 cell line was purchased from InvivoGen (Cat. #: hkb-htlr7, San Diego, California, USA). These cells were originally designed for studying the stimulation of human TLR7 by monitoring the activation of NF-κB. […]
Answer in µM, number only, no unit symbol.

IC50 of C[C@@H]1CN(c2ccc(C#N)n3nccc23)C[C@H](C(=O)NC2CC3CCC(C2)N3C)O1 (stereo partly shown) , assay on human TLR7 (Homo sapiens, UniProt Q9NYK1), is 0.004

IC50 of C[C@@H]1CN(c2ccc(C#N)n3nccc23)C[C@H](C(=O)NC2CCN(C)CC2)O1 , assay on human TLR7 (Homo sapiens, UniProt Q9NYK1), is 0.017

IC50 of C[C@@H]1CN(c2ccc(C#N)n3nccc23)C[C@H](C(=O)NC2CC3CCC(C2)N3)O1 (stereo partly shown) , assay on human TLR7 (Homo sapiens, UniProt Q9NYK1), is 0.027

IC50 of C[C@H]1C[C@@H](N)CN(c2ccc(C#N)n3nccc23)C1 , assay on human TLR7 (Homo sapiens, UniProt Q9NYK1), is 0.034

IC50 of C[C@H]1C[C@@H](NCC#N)CN(c2ccc(C#N)n3nccc23)C1 , assay on human TLR7 (Homo sapiens, UniProt Q9NYK1), is 0.17

IC50 of C[C@@H]1CN(c2ccc(C#N)n3nccc23)C[C@H](C(=O)N2CCC3(CCNCC3)CC2)O1 , assay on human TLR7 (Homo sapiens, UniProt Q9NYK1), is 0.32

IC50 of COCCNC(=O)[C@H]1CN(c2ccc(C#N)n3nccc23)C[C@@H](C)O1 , assay on human TLR7 (Homo sapiens, UniProt Q9NYK1), is 0.65

IC50 of C[C@@H]1CN(c2ccc(C#N)n3nccc23)C[C@H](C(=O)NC23CC4CC(CC(C4)C2)C3)O1 , assay on human TLR7 (Homo sapiens, UniProt Q9NYK1), is 0.21

IC50 of C[C@@H]1CN(c2ccc(C#N)n3nccc23)C[C@H](C(=O)NC23CC(CO)(C2)C3)O1 , assay on human TLR7 (Homo sapiens, UniProt Q9NYK1), is 0.22

IC50 of C[C@@H]1CN(c2ccc(C#N)n3nccc23)C[C@H](C(=O)NC(C)(C)CO)O1 , assay on human TLR7 (Homo sapiens, UniProt Q9NYK1), is 0.46

IC50 of C[C@@H]1CN(c2ccc(C#N)n3nccc23)C[C@H](C(=O)NC2CN(C)CC23CC3)O1 (stereo partly shown) , assay on human TLR7 (Homo sapiens, UniProt Q9NYK1), is 0.031

IC50 of C[C@@H]1CN(c2ccc(C#N)n3nccc23)C[C@H](C(=O)NC2CCNCC2)O1 , assay on human TLR7 (Homo sapiens, UniProt Q9NYK1), is 0.043

IC50 of C[C@@H]1CN(c2ccc(C#N)n3nccc23)C[C@H](C(=O)N[C@H]2CNC[C@H]2F)O1 , assay on human TLR7 (Homo sapiens, UniProt Q9NYK1), is 0.091

====

- tgt: human TLR7 (Homo sapiens, UniProt Q9NYK1)
- assay method text: HEK293-Blue-hTLR-7 cells assay (SEAP reporter, R848 stimulation)
- Format: cell-based
- assay setup: HEK293-Blue-hTLR-7 cells, R848 ligand, 20 hrs incubation; read-out: TLR7 IC50
pIC50: −log10 of the molar value.
Classification field: yes (1) = pIC50 at or over 7; no (0) = pIC50 under 7.

Prompt: Is it the case that C[C@@H]1CN(c2ccc(C#N)n3nccc23)C[C@H](C(=O)NCC2CCNC2)O1 (some centres unmarked) [Example 40] has pIC50 reaching or exceeding 7?
Completion: no (0)

Prompt: Is it the case that C[C@@H]1CN(c2ccc(C#N)n3nccc23)C[C@H](C(=O)NC2CC3CCC2CN3C)O1 (some centres unmarked) [Example 34] has pIC50 reaching or exceeding 7?
Completion: yes (1)

Prompt: Is it the case that C[C@@H]1CN(c2ccc(C#N)n3nccc23)C[C@H](C(=O)NCC2CNCC2(F)F)O1 (some centres unmarked) [Example 18] has pIC50 reaching or exceeding 7?
Completion: yes (1)

Prompt: Is it the case that C[C@@H]1CN(c2ccc(C#N)n3nccc23)C[C@H](C(=O)NC2CCOCC2)O1 [Example 4] has pIC50 reaching or exceeding 7?
Completion: no (0)

Prompt: Is it the case that C[C@@H]1CN(c2ccc(C#N)n3nccc23)C[C@H](C(=O)NC2C3CNC[C@@H]32)O1 (some centres unmarked) [Example 31] has pIC50 reaching or exceeding 7?
Completion: yes (1)

Prompt: Is it the case that C[C@@H]1CN(c2ccc(Cl)n3nccc23)C[C@H](C(=O)NC2CCN(C)CC2)O1 [Example 38] has pIC50 reaching or exceeding 7?
Completion: yes (1)

Prompt: Is it the case that CCC(C)(C)NC(=O)[C@H]1CN(c2ccc(C#N)n3nccc23)C[C@@H](C)O1 [Example 17] has pIC50 reaching or exceeding 7?
Completion: no (0)

Prompt: Is it the case that C[C@@H]1CN(c2ccc(C#N)n3nccc23)C[C@H](C(=O)NC2C3CCCC2CNC3)O1 (some centres unmarked) [Example 37] has pIC50 reaching or exceeding 7?
Completion: yes (1)
